The origin of these recorded values is PubChem BioAssay (NCI).

test system: HOP-62 NSCLC; experiment: NCI-60 one-dose screen, 48 h; settings: 10 µM
Compounds without any hit were thinned out: in the full panel of roughly 83,000, 20% have a hit. Activity calls are given as the source filed them. How the source made its calls: active means growth percent below 10; inactive means the rest.
Returns: one label drawn from active, inactive

Please let me know the test result on file for "O=C(O)CN1C(=O)c2cccc3cccc(c23)C1=O" .
inactive

Please let me know the test result on file for CC[C@H](C)C(=O)O[C@H]1CCC=C2C=C[C@H](C)C(CCC3C[C@@H](O)CC(=O)O3)[C@H]21 (some centres undefined) .
inactive

Please let me know the test result on file for "O=[N+]([O-])c1ccc(Oc2cccnc2)c([N+](=O)[O-])c1" .
inactive

Please let me know the test result on file for "O=C(Nc1ccncc1)C(=O)c1cn(S(=O)(=O)c2ccc(F)cc2)c2ccccc12" .
inactive

Please let me know the test result on file for "Clc1ccc2c(NCCCNc3nccc(Nc4ccc(Br)cc4)n3)ccnc2c1" .
active

Please let me know the test result on file for "COc1ccc(-c2csc(NC(=O)CSc3nc(C)c(-c4ccccc4)n3Nc3ccccc3)n2)cc1" .
inactive

Please let me know the test result on file for "CC(C)(C)c1cc(Br)cc(C(C)(C)C)c1O" .
inactive

Please let me know the test result on file for "O=[N+]([O-])c1cccc(-c2ncc(-c3ccc(Cl)cc3Cl)[nH]2)c1" .
inactive

Please let me know the test result on file for "CSc1nc(=O)n(Cc2ccc(Cl)cc2)c(=O)[nH]1" .
inactive
